Source of measurements: ChEMBL document CHEMBL4513216

system: Plasmodium berghei; assay: Screen against P. berghei liver stage (PbLuc), transformed with Luciferase, at 10uM; type: functional, HepG2; conditions: tested at 10 uM
In all, about 69,000 compounds went through this assay and about 8,600 (12%) showed an effect of 50% or more. What follows is part of a selection rich in strong results, with near analogues and random picks from the rest.
MEASURED_QUANTITY: INHIBITION (%)
Answer in %, number only, no unit symbol.

Examples with answers:
Exam item: Recorded INHIBITION for CNC(=O)CN1CCCC12CCN(C(=O)c1ccc(F)cc1)CC2 , please?
Marked response: 42.4

Exam item: Quick check: INHIBITION of Cc1nccn1CCC1CCCCN1Cc1cnc(N(C)C)nc1 (configuration not stated) ?
Marked response: 33.3

Exam item: Looking for the measured INHIBITION of N#Cc1ccc(CN2CCCN(C(=O)CCn3cncn3)CC2)cc1 , can you help?
Marked response: -14.3

Exam item: May I ask what INHIBITION has been recorded for O=C(c1ccccc1F)N(CCCO)S(=O)(=O)c1cccs1 ?
Marked response: 37.7

Exam item: I am curious: what INHIBITION value has been reported for CCSCCOC(=O)CCCc1ccc2c(c1)CC(=O)N2 ?
Marked response: 54.9

Exam item: Endpoint output: INHIBITION of CCS(=O)(=O)N1CC[C@@H]2[C@H](CC1)N(Cc1cccnc1)CCS2(=O)=O . Value?
Marked response: 5.56

Next:
Exam item: What does the data say about its INHIBITION? Entry: Cc1nc(-c2ccccc2)sc1CNC(=O)c1ccc(=O)n(C)c1
Marked response: 39.6

* * *

INHIBITION values, listed per item
tested on: Plasmodium berghei; assay: Screen against P. berghei liver stage (PbLuc), transformed with Luciferase, at 10uM; format: functional, HepG2; conditions: tested at 10 uM
The whole screen tested about 69,000 compounds, of which about 8,600 (12%) showed an effect of 50% or more. The sample as a whole holds a higher share of strong results than the screen did.
Your answer is read as %, so omit the unit and give the number.

Exam item: So what does the record say about INHIBITION for NCC1CCN(c2cnn(CCCn3cccn3)c(=O)c2)CC1 ?
Marked response: 61

Exam item: Name the reported INHIBITION value associated with the molecule COc1cc(Br)c(CNC(C)c2nnc3n2CCC3)cc1OC (stereo unspecified)
Marked response: 47.1

Exam item: I have this molecule here, COc1cccc(CC(=O)NCCc2nnc3n2CCCCC3)c1 , and I need its recorded INHIBITION.
Marked response: -11.3

* * *

system: Plasmodium berghei; assay: Screen against P. berghei liver stage (PbLuc), transformed with Luciferase, at 10uM; assay type: functional, HepG2; details: tested at 10 uM
Screen size: about 69,000 compounds; about 8,600 (12%) showed an effect of 50% or more. The list comes from a sample in which strong results are over-represented; it also holds close analogues and randomly drawn compounds.
Sorting guide: entries reporting INHIBITION beneath 30% go in the class 1 pile, the rest go in the class 0 pile.

For orientation, consider the following solved cases.
Exam item: Hello, is INHIBITION of the following compound strictly smaller than 30%? O=c1[nH]cccc1-c1nccc(C2(c3ccccc3Cl)CCNCC2)n1
Marked response: class 0

Exam item: Quick check: INHIBITION of CC(Cn1cncn1)NC(=O)NCc1csc(N(C)C)n1 (stereo not drawn) under 30%?
Marked response: class 1

Exam item: # TODO verify INHIBITION < 30% strictly for this compound: CC(NC(=O)NCCCn1cncn1)c1ccc(F)cc1 (stereo not drawn)
Marked response: class 1

Exam item: State whether 30% exceeds INHIBITION recorded for CC(C)=CCN1CC2(CCN(Cc3ncc[nH]3)CC2)CC1=O .
Marked response: class 1

Exam item: Hello, is INHIBITION of the following compound strictly smaller than 30%? CCOCC1CN(CCc2ccccc2)Cc2c1cnn2C (stereo not drawn)
Marked response: class 0

Exam item: Hi there! Is INHIBITION for O=C(NCc1ccco1)Nc1cccc(S(=O)(=O)C(F)F)c1 below 30%, do you know?
Marked response: class 0

Exam item: Consider CC(C)c1nccc(C2(c3ccccc3Cl)CCNCC2)n1 . Does its INHIBITION lie strictly below 30%?
Marked response: class 1

Exam item: For this compound, is INHIBITION lower than 30%? O=C(c1ccncc1)N1CCC2(CC1)C(=O)Nc1ccccc12
Marked response: class 1

Exam item: Is the reported INHIBITION for CO[C@H]1C[C@@H](O)C12CCN(CCOc1ccc(Cl)cc1)CC2 strictly below 30%?
Marked response: class 0

Exam item: Given the entry Cc1ccc(C(C)(C)CNC(=O)NC(C)Cn2cncn2)cc1 (stereo not drawn) , would its reported INHIBITION be below 30%?
Marked response: class 0

As a next step, examine the compound that follows.
Exam item: INHIBITION under 30%? Item: O=C(CNc1ccccc1S(=O)(=O)C(F)F)NCc1ccco1
Marked response: class 0
